molecular target: cynomolgus IgE (recombinant chimaeric D12 variable region and cynomolgus IgE constant region) (cynomolgus monkey (constant region); …); test: cell-based or functional assay
Sequence (heavy, as listed by the source limits assumed, chain 1 of 2): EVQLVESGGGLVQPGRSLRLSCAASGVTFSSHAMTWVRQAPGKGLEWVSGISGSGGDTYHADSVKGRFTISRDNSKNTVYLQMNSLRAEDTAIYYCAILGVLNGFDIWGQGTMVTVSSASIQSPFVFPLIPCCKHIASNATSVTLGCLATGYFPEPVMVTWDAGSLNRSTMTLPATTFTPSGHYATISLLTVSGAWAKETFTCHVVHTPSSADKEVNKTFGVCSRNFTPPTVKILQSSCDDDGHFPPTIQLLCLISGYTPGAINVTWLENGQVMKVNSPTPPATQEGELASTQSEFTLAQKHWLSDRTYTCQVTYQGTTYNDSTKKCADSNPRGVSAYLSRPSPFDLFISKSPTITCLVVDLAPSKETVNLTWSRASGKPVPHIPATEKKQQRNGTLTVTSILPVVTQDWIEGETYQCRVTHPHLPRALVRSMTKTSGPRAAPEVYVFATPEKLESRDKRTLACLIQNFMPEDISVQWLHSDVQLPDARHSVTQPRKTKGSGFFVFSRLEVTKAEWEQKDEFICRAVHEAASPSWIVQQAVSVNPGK
Sequence (light, as listed by the source limits assumed, chain 2 of 2): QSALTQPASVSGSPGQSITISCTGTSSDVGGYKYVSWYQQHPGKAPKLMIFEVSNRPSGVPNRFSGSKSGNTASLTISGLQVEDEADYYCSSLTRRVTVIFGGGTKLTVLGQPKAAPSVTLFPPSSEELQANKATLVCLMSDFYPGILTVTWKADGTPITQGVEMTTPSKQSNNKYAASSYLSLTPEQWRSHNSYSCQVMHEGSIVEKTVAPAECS
Reported endpoint: RBL-ER51 calcium signalling IC50 (nM), Cynomolgus IgE, geomean

[[record]]
binder = "Antibody 19 IgG (antibody, V domains shown, Whole human IgG (section 1.4, IgG1)) VH: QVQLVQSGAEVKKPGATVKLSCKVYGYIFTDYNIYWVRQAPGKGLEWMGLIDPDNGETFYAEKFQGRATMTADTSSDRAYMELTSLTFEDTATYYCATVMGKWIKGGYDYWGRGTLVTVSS VL: QSVLTQPPSVSGAPGQRVTISCTGSSSNIGAGYDVHWYQQLPGTAPKLLIYDNFNRPSGVPDRFSGSKSGTSASLAIIGLQTEDEADYYCQSYDSTLSHSPFGTGTKLTVL"
unit_of_measure = "nM"
recorded_number = 0.111

[[record]]
binder = "Antibody 12 IgG (antibody, V domains shown, Whole human IgG (section 1.4, IgG1)) VH: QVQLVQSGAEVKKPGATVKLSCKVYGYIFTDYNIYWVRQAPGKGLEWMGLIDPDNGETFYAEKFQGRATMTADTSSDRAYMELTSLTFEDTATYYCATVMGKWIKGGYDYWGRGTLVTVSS VL: QSVLTQPPSVSGAPGQRVTISCTGSSSNIGAGYDVHWYQQLPGTAPKLLIYDNFNRPSGVPDRFSGSKSGTSASLAIIGLQTEDEADYYCQSYDSSIDHSPFGTGTKLTVL"
unit_of_measure = "nM"
recorded_number = 0.334

